- target.desc: SALL4 ZFC4 WT (HT-SELEX) (Mus musculus, UniProt Q8BX22 870-940)
- Sequence: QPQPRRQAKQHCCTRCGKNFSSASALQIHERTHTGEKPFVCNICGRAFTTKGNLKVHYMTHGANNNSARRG
- test.name: HT-SELEX; high values mean tight binding
- measurement.parameters: protein: recombinant; vector His6-GST; dsDNA, one strand shown
readout.type: binding signal (fold-change vs cycle 0)

1. ACTAAT : 2.16
2. CTAATA : 2.24
3. AAAGTG : 1.1
4. CGAAGA : 0.723
5. ATCTAG : 1.35
6. ATCAAC : 1.34
7. AATAAC : 2.58
8. AAGGGA : 0.928
9. AAACGG : 0.53
10. CAGATG : 0.794
11. AAATAG : 1.7
12. AAAAAA : 2.68
